# reported MIC; entries follow
# Test system: Providencia
# assayExplanation: Minimum inhibitory concentration required for antibacterial activity against Providencia
# Format: functional
The figure you give is taken to be in µg/mL; do not add the unit.

Example entries begin here.
CSCC[C@H](N)C1=C(C(=O)O)N2C(=O)[C@H]([C@@H](C)O)[C@H]2S1 | 55.7
C[C@@H](O)[C@H]1C(=O)N2C(C(=O)O)=C(SC[C@@H](N)C(=O)O)S[C@H]12 | 5.66
CSCC[C@@H](N)C1=C(C(=O)O)N2C(=O)[C@H]([C@@H](C)O)[C@H]2S1 | 5.28
C[C@@H](O)[C@H]1C(=O)N2C(C(=O)O)=C([C@H](N)CCC(=O)O)S[C@H]12 | 16

Now for a further compound.
Look up MIC: C[C@@H](O)[C@H]1C(=O)N2C(C(=O)O)=C(CC[C@@H](N)C(=O)O)S[C@H]12 18.4
